Parameter: TGI. Scope: all listed entries.
system: HOP-62 NSCLC; experiment: NCI tumour cell line growth inhibition, 48 h

CN(C)CCCN=c1c2ccccc2n(O)c2ccccc12 = > 100 µM

Entry CCOC(=O)N[C@@H]1C(CC(=O)OC)O[C@H]2OC(C)(C)O[C@H]21 (some centres not stated) ; TGI = > 100 µM

Input CC(CC[C@@]1(C)C(=O)CCC2O[C@]21C)[C@H]1C[C@@H](c2ccoc2)OC1=O (some centres not stated) . Output TGI: > 100 µM

====

system: EKVX NSCLC; assay: NCI tumour cell line growth inhibition, 48 h; in the data active means GI50 below about 0.43 µM; inactive means the rest
Choose one outcome from this list and give only that: T = active, F = inactive

CCOC(=O)C1CCN(S(=O)(=O)/N=C2/NC(=O)NC2=C(Cl)Cl)CC1 = F
Cc1ccc(NC(=O)c2cccc(C(C)(C)C#N)c2)cc1Nc1ccc2ncn(C)c(=O)c2c1 = F
Cc1cc(C(=O)Nc2ccc3cc(CN4CCOCC4)ccc3n2)c(C)n1-c1ccccc1 = F
CCc1nc2cc(F)c(/C=C/C(=O)NO)cc2c(=O)n1CCc1ccccc1 = T
CC1=CC(=O)C=CC1=O = F

Asked: Which outcome did this test record for the compound Cc1ccc(N=C/C=C(\Nc2ccc(C)cc2)c2ccc(Cl)cc2)cc1 ?
Given back: F

Asked: Name the outcome recorded for Cc1cc(C)c(NC(=O)c2sc3nc4c(cc3c2N)C(=O)CCC4)c(C)c1 in the assay.
Given back: F

Asked: How did this test come out for COc1cc2ncnc(-n3ncc4cc(NC(=O)Nc5ccccc5)ccc43)c2cc1OC ?
Given back: F

====

system: HCT-15 colon; test: NCI tumour cell line growth inhibition, 48 h
# GI50 per entry

Illustrative cases are given below, each with its answer.
Nc1nc(Nc2cccnc2)sc1C(=O)c1ccccc1F = 2820 nM
CN1CCN(CCCNc2nc3ccc(Oc4ccc(NC(=O)Nc5cc(C(F)(F)F)ccc5F)cc4)cc3[nH]2)CC1 = > 25000 nM
NC(=O)c1cc(Cl)ccc1NC(=O)/C=C/c1ccccc1 = 2380 nM

Pending molecule:
Note to self: GI50 recorded for CCNCCNc1cc(-c2ccc(C(F)(F)F)cc2)c(C#N)c2nc3ccccc3n12 was 612 nM

====

Recorded TGI by entry
test system: TK-10 renal; experiment: NCI tumour cell line growth inhibition, 48 h

COC(=O)C1=CS/C(=C2\S[C@@H]3[C@H](S2)[C@H]2C=C[C@@H]3C2)S1 = > 100 µM
O=C(NCP(=O)(c1ccccc1)c1ccccc1)OCc1ccccc1 = > 100 µM

Next item in the queue.
The compound Cn1cc(C2(C)CC(C)(C)c3c2n(C)c2ccccc32)c2ccccc21 (stereo not drawn) , tested on TK-10 renal, showed TGI of > 100 µM

====

tested on: MDA-MB-435; test: NCI tumour cell line growth inhibition, 48 h
Parameter: TGI. Scope: all listed entries.

Answered cases to consult:
CCOC(=O)Cc1nc2cc(F)c(F)cc2[nH]c1=O = > 100 µM
CC(CC[C@@]1(C)C(=O)CCC2O[C@]21C)[C@H]1C[C@@H](c2ccoc2)OC1=O (stereo partly drawn) = > 100 µM

Form: molecule = C/C(=N\Nc1ccc(Cl)cn1)c1ccc2ccccc2n1 ; TGI = > 100 µM

====

// GI50 lookup, one value per entry
test system: SNB-19 CNS; experiment: NCI tumour cell line growth inhibition, 48 h

Take a look at these entries with their results.
COc1cc(OC)c(C(=O)/C=C/c2cccc(C(F)(F)F)c2)c(OC)c1 = 1440 nM
COc1ccc(C(=O)c2cc(C)c(OC)c(C)c2)cc1OC(=O)CCl = < 10 nM
COc1ccc(C(=O)c2cc(C)c(OC)c(C)c2)c(OC)c1O = 33.2 nM

According to the records, this compound CCNCCNc1cc(-c2ccc(C(F)(F)F)cc2)c(C#N)c2nc3ccccc3n12 displays GI50 of 1720 nM

// Cc1ccc(NC(=O)c2cccc(C(C)(C)C#N)c2)cc1Nc1ccc2ncn(C)c(=O)c2c1 : GI50 value = 5480 nM
